- TEST SUMMARY: solvent given as SMILES
- CONDITION: in O
MEASUREMENT NAME: fluorescence lifetime (ns)

// solved cases for fluorescence lifetime follow
1. O=C(O)CCCCCn1c2ccc(Br)cc2c(=O)c2cc(Br)ccc21 ... 6
2. CC1(C)C(/C=C/C2=C(c3ccc(C(=O)O)cc3)C(=C/C=C3/N(CCCCS(=O)(=O)[O-])c4ccccc4C3(C)C)/CC2)=[N+](CCCCS(=O)(=O)[O-])c2ccccc21 ... 0.36
3. c1ccc(-c2cc(-c3ccc(-c4nc(-c5ccccn5)c(-c5ccccn5)[nH]4)cc3)cc(-c3ccccn3)n2)nc1 ... 2.39
4. COc1ccc(-c2ccc(-c3ccc(C#N)s3)s2)cc1 ... 0.91
5. CC[n+]1nc2cc3c4c(c2c2ccccc21)CCCN4CCC3 ... 3.6

1. CC[n+]1nc2cc3c(cc2c2cc(C)ccc21)N(C)CCC3
2. CSc1ccc2c(c1)N(CCCN1CCN(C)CN1C)c1ccccc1S2
Which value of fluorescence lifetime is greater, the one for 1 or the one for 2 ? Let me know the label of the one you choose.
1

A. Nc1ccc2c(-c3ccc(C(=O)CN4C(=O)CCC4=O)cc3C(=O)[O-])c3ccc(=[NH2+])c(S(=O)(=O)[O-])c-3oc2c1S(=O)(=O)[O-]
B. CCN(CC)c1ccc2c(c1)OC1=CC(N(CC)CC)C=CC1[C+]2c1ccccc1C(=O)O (stereo not given)
Could you point out whether the larger fluorescence lifetime belongs to A or to B ? Answer format: the label of the selected item.
A
(A: 4.1 ns, B: 1.52 ns)

I. [NH3+]C(Cc1ccc(O)cc1)C(=O)[O-] (stereo not given)
II. CSc1ccc2c(c1)N(CCCN(C)C)c1ccccc1S2
III. O=C([O-])c1cc2c(ccc3ccccc32)oc1=O
IV. Nc1cccc2cn[nH]c12
V. Nc1nc2c([nH]c(=O)n2[C@H]2C[C@H](O)[C@@H](CO)O2)c(=O)[nH]1
Parameters: sort_field (fluorescence lifetime), sort_dir (desc). Use the labels to give the requested order.
III, I, IV, II, V
(III: 12.8 ns, I: 3.27 ns, IV: 1.74 ns, II: 1.17 ns, V: 0.0008 ns)

A. Nc1cc([NH3+])cc(-c2nc3ccccc3s2)c1
B. CC(=O)Nc1ccc2c(c1)c(=O)c1ccccc1n2CCCCCC(=O)O
C. CN(C)c1ccc2c(-c3ccc(C(=O)[O-])cc3C(=O)[O-])c3ccc(=[N+](C)C)cc-3oc2c1
D. CN(C)CCCN1c2ccccc2CCc2ccccc21
Arrange the 4 compounds from largest to smallest fluorescence lifetime. Would you mind listing the labels in the order requested?
B, A, C, D

* * *

- TEST SUMMARY: solvent given as SMILES
- CONDITION: in ClCCl
MEASUREMENT NAME: fluorescence lifetime (ns)

1) CCN(CC)c1ccc2c(c1)oc(=O)c1cc3c(-c4ccccc4)nn(-c4ccccc4)c3nc12 ... 17.9
2) COc1ccc(-c2c3ccccc3c(C#Cc3ccccc3)c3ccccc23)cc1 ... 2.8
3) COC(=O)c1cc(=O)n(C)c2cc(-c3ccc(OC)cc3)sc12 ... 2.3
4) CC1=CC(C)=[N+]2C1=C(c1c(-c3ccccn3)nc3ccccn13)c1c(C)cc(C)n1[B-]2(F)F ... 6.9

P. O=C1c2ccccc2-c2nc3c(F)c(F)c(F)c(F)c3n21
Q. COc1ccc2cc(/C=C/C3=CC(c4ccccc4)=[O+][B-](F)(F)O3)ccc2c1
For P and Q , which recorded fluorescence lifetime is lower? Mark your selection by writing its label.
Q
(Q: 2.53 ns, P: 9.5 ns)
